Assay Info: binders of probe aFGF10 on microarray, primary screen, stem cell growth factor project, biochemical, small-molecule microarray, fluorescence 635/667 (AID 1071);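 also: score merges 667 nm spot intensity and signal to noise from triplicate slides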
Assay Conditions: higher = more signal
Entries and their composite z-score values follow.
// print number alone

Worked examples follow.
C=CCC(OC(C)=O)[C@@H]1[C@@H](N(Cc2cc3ccccc3o2)C(=O)Cc2ccc(F)cc2)c2cc(OCCCO)ccc2N1C(=O)c1ccc2ccccc2n1 (stereo partly drawn) | 0.0991
CCOC(=O)C[C@H]1[C@H](OC(=O)c2ccccc2-c2ccccc2)[C@@H](NC(=O)c2ccc3ccccc3n2)c2cc(OCCCO)ccc2N1C(=O)c1ccc2ccccc2n1 | 0.304

Lab book: composite z-score of COC(=O)C1(Cc2ccccc2)C=C2C(=C(C(C)C)C(=O)C2C)CN1 (stereo not drawn) noted as -0.66
